# test-target: Glutamate--cysteine ligase catalytic subunit (Homo sapiens, UniProt P48506)
# Sequence (P48506 whole entry): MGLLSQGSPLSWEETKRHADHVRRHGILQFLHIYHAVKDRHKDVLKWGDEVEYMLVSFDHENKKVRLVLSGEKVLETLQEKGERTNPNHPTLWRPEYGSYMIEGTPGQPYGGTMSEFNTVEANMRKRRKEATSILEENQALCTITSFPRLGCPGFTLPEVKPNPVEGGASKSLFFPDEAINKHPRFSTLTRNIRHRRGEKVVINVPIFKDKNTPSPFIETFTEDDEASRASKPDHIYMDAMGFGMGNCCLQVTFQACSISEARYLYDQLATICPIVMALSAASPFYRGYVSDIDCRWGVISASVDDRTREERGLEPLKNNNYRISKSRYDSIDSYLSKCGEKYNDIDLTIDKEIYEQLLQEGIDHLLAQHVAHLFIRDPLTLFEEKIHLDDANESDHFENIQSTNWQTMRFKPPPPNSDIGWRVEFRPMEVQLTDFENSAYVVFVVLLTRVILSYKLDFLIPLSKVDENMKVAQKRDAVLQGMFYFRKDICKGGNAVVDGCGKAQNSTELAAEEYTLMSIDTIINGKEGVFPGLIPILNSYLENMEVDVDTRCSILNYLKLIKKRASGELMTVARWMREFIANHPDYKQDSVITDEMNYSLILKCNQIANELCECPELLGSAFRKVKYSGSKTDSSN
# test: GCL Enzyme Profiling Assay
pIC50: −log10 of the molar value.
result-type: pIC50

1) N=S(=O)(CCC(c1ccc(C2CC2)cc1)C(F)(F)F)CC[C@H](N)C(=O)O (stereo partly drawn) [US20260034094, Compound 225] : > 4.70
2) Cc1ccccc1-c1ccc(C(CCS(=N)(=O)CC[C@H](N)C(=O)O)C(F)(F)F)cc1 (stereo partly drawn) [US20260034094, Compound 265] : > 4.70
3) N=S(=O)(CCC(c1ccc(Oc2ccc(Cl)cc2Cl)cc1)C(F)(F)F)CC[C@H](N)C(=O)O (stereo partly drawn) [US20260034094, Compound 318] : > 4.70
